molecular target: Cy3-IgE (direct labeling) (UniProt P01854); assay: microarray fluorescence; conditions: direct label, D/P 2.4, T linker 10-15; T linker to array surface; PBSMTB for IgE microarrays (full recipe not in material; PBS-based wash: 8.1 mM Na2HPO4, 137 mM NaCl, 1 mM MgCl2, pH 7.4); temperature not stated; thrombin …
endpoint.label: Kd

[in] Query the reported Kd for Cy3-IgE (direct labeling) (UniProt P01854); item: GGGGCACGTTTATCCGTCCCTCCTAGTGGCGTGCCCC [IgE_17-4 (IgE_D17-4), T linker]
[out] 66.3 nM

====

biological target: Cy3-IgE (direct labeling); test: microarray fluorescence; conditions: direct label, C linker; C linker to array surface; PBSMTB for IgE microarrays (full recipe not in material; PBS-based wash: 8.1 mM Na2HPO4, 137 mM NaCl, 1 mM MgCl2, pH 7.4); temperature not stated; thrombin …
endpoint.label: pKd
The meaning of pKd here: minus log10 of the concentration in molar units.

[in] Look up pKd for this sequence: GGGGCACGTTTATCCGTCCCTCCTAGTGGCGTGCCCC [IgE_17-4, C linker]
[out] 7.21

====

molecular target: biotin-IgE (indirect labeling) (UniProt P01854); assay: microarray fluorescence; details: indirect label, A linker; A linker to array surface; PBSMTB for IgE microarrays (full recipe not in material; PBS-based wash: 8.1 mM Na2HPO4, 137 mM NaCl, 1 mM MgCl2, pH 7.4); temperature not stated; thrombin …
endpoint.label: pKd
The meaning of pKd here: minus log10 of the concentration in molar units.

[in] Look up pKd for this sequence: GGGGCACGTTTATCCGTCCCTCCTAGTGGCGTGCCCC [IgE_17-4, A linker]
[out] 7.51

====

Some sequences, each annotated with its measured Kd.
molecular target: Cy3-IgE (direct labeling); assay: microarray fluorescence; conditions: direct label, T linker; T linker to array surface; PBSMTB for IgE microarrays (full recipe not in material; PBS-based wash: 8.1 mM Na2HPO4, 137 mM NaCl, 1 mM MgCl2, pH 7.4); temperature not stated; thrombin …
Your answer should be a plain number; it is taken to be in nM.

sequence.record	target.desc	readout.unit	val
TGGGCACGTTTATCCGTCCCTCCTAGTGGCGTGCCCC [IgE_D17-4_SM1]	Cy3-IgE (direct labeling)	nM	79.9

Now take the following sequence into account.
[in] Look up Kd for this sequence: AGGGCACGTTTATCCGTCCCTCCTAGTGGCGTGCCCT [IgE_D17-4_DM1_37]
[out] 82.3

====

molecular target: biotin-IgE (indirect labeling) (UniProt P01854); experiment: microarray fluorescence; settings: indirect label, G linker; G linker to array surface; PBSMTB for IgE microarrays (full recipe not in material; PBS-based wash: 8.1 mM Na2HPO4, 137 mM NaCl, 1 mM MgCl2, pH 7.4); temperature not stated; thrombin …
endpoint.label: Kd

[in] Look up Kd for this sequence: GGGGCACGTTTATCCGTCCCTCCTAGTGGCGTGCCCC [IgE_17-4, G linker]
[out] 29.5 nM

====

target: Cy3-IgE (direct labeling) (UniProt P01854); experiment: microarray fluorescence; conditions: direct label, G linker; G linker to array surface; PBSMTB for IgE microarrays (full recipe not in material; PBS-based wash: 8.1 mM Na2HPO4, 137 mM NaCl, 1 mM MgCl2, pH 7.4); temperature not stated; thrombin …
endpoint.label: pKd
The meaning of pKd here: minus log10 of the concentration in molar units.

[in] Look up pKd for this sequence: GGGGCACGTTTATCCGTCCCTCCTAGTGGCGTGCCCC [IgE_17-4, G linker]
[out] 7.06

====

Some sequences, each annotated with its measured pKd.
target: biotin-IgE (indirect labeling) (UniProt P01854); experiment: microarray fluorescence; details: indirect label, T linker; T linker to array surface; PBSMTB for IgE microarrays (full recipe not in material; PBS-based wash: 8.1 mM Na2HPO4, 137 mM NaCl, 1 mM MgCl2, pH 7.4); temperature not stated; thrombin …
The meaning of pKd here: minus log10 of the concentration in molar units.

Some sequences with known pKd results, for comparison:
sequence.record	val
GGGGCACGTTTATCCGTCCCTCCTAGTGGCGTGCCCC [IgE_17-4 (IgE_D17-4), T linker]	7.53
TGGGCACGTTTATCCGTCCCTCCTAGTGGCGTGCCCC [IgE_D17-4_SM1]	7.54
CACGTTTATCCGTCCCTCCTAGTGGCGTG [IgE_17-1 (IgE_D17-1)]	7.13

[in] Look up pKd for this sequence: AGGGCACGTTTATCCGTCCCTCCTAGTGGCGTGCCCT [IgE_D17-4_DM1_37]
[out] 7.52
